# TARGET SYSTEM: M-phase inducer phosphatase 2 (Homo sapiens)
# Sequence (P30305 whole entry): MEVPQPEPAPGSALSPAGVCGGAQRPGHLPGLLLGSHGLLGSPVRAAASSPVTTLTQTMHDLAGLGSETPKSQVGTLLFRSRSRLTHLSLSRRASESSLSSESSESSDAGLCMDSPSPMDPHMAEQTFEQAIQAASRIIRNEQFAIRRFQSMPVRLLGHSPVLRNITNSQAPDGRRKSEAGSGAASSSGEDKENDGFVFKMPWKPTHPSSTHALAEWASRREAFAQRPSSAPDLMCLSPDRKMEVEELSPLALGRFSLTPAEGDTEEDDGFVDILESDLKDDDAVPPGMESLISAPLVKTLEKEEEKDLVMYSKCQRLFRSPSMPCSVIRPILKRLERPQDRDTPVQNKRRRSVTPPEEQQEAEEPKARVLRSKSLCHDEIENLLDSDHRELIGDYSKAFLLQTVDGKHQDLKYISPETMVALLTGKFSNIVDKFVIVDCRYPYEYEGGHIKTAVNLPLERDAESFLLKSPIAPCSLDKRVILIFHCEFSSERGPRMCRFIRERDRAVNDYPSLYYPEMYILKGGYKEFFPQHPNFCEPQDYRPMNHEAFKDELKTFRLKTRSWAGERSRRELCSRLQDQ
# EXPERIMENT SUMMARY: Inhibition of full-length recombinant human CDC25B using OMFP as substrate incubated for 5 to 8 mins by fluorescence based assay
OBSERVATION TYPE: IC50 (nM)
Numbers only; they are read as nM.

# input Give the measured IC50 of CC(NC1=C(Cl)C(=O)c2cccnc2C1=O)c1cn(-c2ccc(CO)cc2)nn1 (stereo unspecified) .
# output 190

----------
# TARGET SYSTEM: M-phase inducer phosphatase 1 (Homo sapiens)
# Sequence (P30304 whole entry): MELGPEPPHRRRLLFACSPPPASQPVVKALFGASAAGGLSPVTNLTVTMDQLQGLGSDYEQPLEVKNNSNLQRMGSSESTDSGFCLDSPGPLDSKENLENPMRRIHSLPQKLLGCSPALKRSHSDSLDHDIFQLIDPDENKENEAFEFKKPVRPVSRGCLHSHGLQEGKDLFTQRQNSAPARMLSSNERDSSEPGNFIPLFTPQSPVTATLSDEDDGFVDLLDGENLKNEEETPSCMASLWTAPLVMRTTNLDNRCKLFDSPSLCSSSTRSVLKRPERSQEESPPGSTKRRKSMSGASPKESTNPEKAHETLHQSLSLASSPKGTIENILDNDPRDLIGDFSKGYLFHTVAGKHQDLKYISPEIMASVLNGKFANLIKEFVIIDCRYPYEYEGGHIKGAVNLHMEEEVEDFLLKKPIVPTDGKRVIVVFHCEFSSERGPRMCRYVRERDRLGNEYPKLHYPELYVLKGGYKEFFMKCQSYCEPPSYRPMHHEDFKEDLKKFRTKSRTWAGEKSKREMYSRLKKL
# EXPERIMENT SUMMARY: Inhibition of full-length recombinant human CDC25A using OMFP as substrate incubated for 5 to 8 mins by fluorescence based assay
OBSERVATION TYPE: pIC50
pIC50 is defined as minus the log10 of a concentration measured in mol/L.

# input Give the measured pIC50 of CC(NC1=C(Cl)C(=O)c2cccnc2C1=O)c1cn(-c2ccc(CO)cc2)nn1 (stereo unspecified) .
# output 6.82
